# System: RXF 393 renal
# protocolDetails: NCI tumour cell line growth inhibition, 48 h
Field: TGI. Provide a value for each of the compounds that follow.

Past entries and their recorded results:
Cc1sc2[nH]c(=O)oc(=O)c2c1C : > 100 µM
COc1ccc(C(CCC(C)=O)C(=O)O)cc1OC (centres undefined) : > 100 µM
CN(C)c1ccc(/C=C/C(=O)[O-])cc1.CN(C)c1ccc(/C=C/C(=O)[O-])cc1.[Cu+2] : > 100 µM
C=C=C(C(=O)OC)S(=O)c1ccccc1[N+](=O)[O-] (centres undefined) : > 100 µM
O=C(O)/C=C/C(=O)N1Cc2cc3ccccc3nc2C1 : > 100 µM

Consider the following items and state reported TGI for each.
1. S=C(NNC1=NCCCCN1)Nc1ccc(Cl)cc1
2. COc1cc2nc(Nc3cccc(Br)c3)nc(Nc3cccc(Br)c3)c2cc1OC
3. COC(=O)/C(=N\NC(N)=O)C(C(=O)C(=O)Nc1ccccc1OC)c1nc2ccc([N+](=O)[O-])cc2[nH]c1=O (centres undefined)
4. COC1=CC(c2ccc[nH]2)=N/C1=C\c1[nH]c(C)c(CC(=O)OCc2ccccc2)c1CCC(=O)OCc1ccccc1
5. CCOC(=O)c1ccccc1OC(=O)NNc1ccccc1

Result:
["> 100 µM", "33.7 µM", "> 100 µM", "2.19 µM", "> 100 µM"]

Consider the following items and state reported TGI for each.
1. O=C1C(Cl)N(c2cccc(Cl)c2)C1c1c[nH]c2ccccc12 (centres undefined)
2. CCN1CCCC(C#N)(c2ccccc2)CC1 (centres undefined)
3. CC(C)(C)c1cc(-c2cc(C(C)(C)C)[nH]n2)n[nH]1

Result:
["> 100 µM", "> 100 µM", "> 100 µM"]

Need TGI for each of these compounds.
1. COC1OC(CO)C(O)C(OC(C)=O)C1NC(=O)N(CCCl)N=O (centres undefined)
2. CC[C@H](NC(=O)[C@H]1CCCCN1C)C(=O)N(C)[C@H](C[C@@H](OC(C)=O)c1nc(C(=O)N[C@@H](Cc2ccccc2)C[C@H](C)C(=O)O)cs1)C(C)C
3. CCc1c(CN)c(CC)c(CNC2=NCCN2)c(CC)c1CNC1=NCCN1
4. NC1=NC2=c3ccccc3=C(c3cnccn3)C2(c2cnccn2)c2ccccc21 (centres undefined)
5. CCOC(=O)c1ccc(Nc2sc(C(=O)c3ccc(Br)cc3)c(N)c2C#N)cc1
6. N#C[C@H](C(=O)c1ccccc1F)c1nc2ccccc2s1

Result:
1: > 100 µM; 2: > 14.3 µM; 3: > 100 µM; 4: > 100 µM; 5: > 100 µM; 6: > 100 µM

====

# Test system: SK-MEL-5 melanoma
# protocolDetails: NCI tumour cell line growth inhibition, 48 h
valueType: TGI (µM)
One number for each entry, in µM.

C[C@]12CC[C@@H]3c4cc(OC(F)F)c(O)cc4CC[C@H]3[C@@H]1CC[C@@H]2OS(N)(=O)=O : 13.3

# ---- query compound ----
Problem: Identify measured TGI obtained with SK-MEL-5 melanoma for `CN1CCC(COc2cnc(-c3cccc(Cn4nc(-c5cccc(C#N)c5)ccc4=O)c3)nc2)CC1` .
Result: 2.85

====

Could you please report measured GI50 for the items listed next?
# System: SF-295 CNS
# protocolDetails: NCI tumour cell line growth inhibition, 48 h

The following compounds have reported results that may help.
COc1ccc(C(=O)Nc2ncc(Cc3cccc(Cl)c3)s2)cc1OC : 0.0607 µM
C[C@]12CC[C@@H]3c4cc(OC(F)F)c(O)cc4CC[C@H]3[C@@H]1CC[C@@H]2OS(N)(=O)=O : 0.33 µM
Cc1cc(Nc2ccc(OCc3ccccc3)cc2)nc2cc(O)ccc12 : 2.23 µM
COc1ccc2sc3cccc(NCCN(C)C)c3c(=O)c2c1 : 4.61 µM
CCC(CC)c1nc(Nc2ccc(C(=O)OC)cc2)c2ccccc2n1 : > 18.8 µM

# batch: return GI50 for each of the 6 compounds below
1. c1ccc([CH2][Sn]([CH2]c2ccccc2)([O]c2cccc3cccnc23)[O]c2cccc3cccnc23)cc1
2. C[n+]1c(/C=C/c2c[nH]c3ccccc23)ccc2ccccc21
3. N#Cc1c(NC(=O)NCc2ccccc2)sc2c1CCCC2
4. COc1ccc(N=Cc2c(O)ccc3c2oc2cc(Cl)c(O)c(Cl)c23)cc1
5. O=C1CC[C@H](N2C(=O)c3cccc4c(Cc5ccc(CN6CCOCC6)cc5)ccc2c34)C(=O)N1
6. CC(C)(C)N1CCC1CN (stereo unspecified)

Result:
["0.579 µM", "6.93 µM", "0.549 µM", "3.39 µM", "19.3 µM", "> 100 µM"]
